# PROTOCOL DESCRIPTION: protein stability index of a GFP-peptide fusion (GPS, HEK-293T) (PSI 1-6); higher = more stable;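 further: 24-mer peptide tiles fused after GFP, lentivirally expressed, FACS-sorted into six equal bins by GFP/DsRed ratio, decoded by Illumina sequencing, PSI is the read-weighted mean bin number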
# TEST CONTEXT: treatment: MLN4924 1 uM, 8 h; c terminus: a fixed tail appended
Recorded protein stability index by entry
Reply with just the number.

1) KGMVLDENYNNLANAVISVSGINH [CPN1]; 3.02
2) PVCADLQAKILQCYRENTHQTLKC [CHCHD3]; 3
3) VHGDPAVWWVSQFVKYLIRPQPWL [FUT8]; 3.21

Reported protein stability index for QLQDQDQKLLEQTQIIGEQNARLA [FBXO28] was 4.74

Query TFEYTLLQPPHESRPQPIYYGFSE [ADAMTSL2] yields protein stability index of 2.58

Entry under test: VFLASKVEEFGVVSNTRLIAAATS [CCNC] . Its protein stability index was 2.24

# sequence LHMSQRERTWPPPAMSPYWRTWMT [C22orf15] ; its protein stability index = 2.56

GET /value?item= AYEYEREGLYEQAFQLLRRFVQAE [TRADD] &field=protein stability index returns 2.48

Entry under test: LKCEMNQMSGEPLDKLNFEAINFC [ACSBG2] . Its protein stability index was 3.16

Notebook: KILLDAQHESGQSSSRGSSHCDSP [BNIP3L] , protein stability index read as 4.83

// recorded protein stability index for TKFGLFTPGSRIESILMSLPLTAR [CPOX] : 2.2

What the record says about NLLALGTDRKLDDGDDKVFRRAPS [PPFIA4] : protein stability index is 4.5

Notebook: YFVSESFEDAKEKMREFTKTIKRP [TPH1] , protein stability index read as 3.41

Input LGVFLDYEAGVLAFYDVTGGMSHL [TRIM14] . Output protein stability index: 2.98

Quick note, protein stability index for LPEELRRLSGLSSVGHNWRKRMGT [C22orf15] landed at 3.07

The sequence listed as SLESEEEEYPGITAEDSNDIYILP [BCL2L13] shows protein stability index equal to 5.05

Entry DARDEELEKDTMDNWDEKKLEEVV [ZC3H15] , protein stability index reported as 5.21

Entry DTRRLITKPQNLNDAYGPPSNFLE [SNX3] , protein stability index reported as 3.88

CISDELLENLCENASTLRTINIKC [FBXO39] yielded protein stability index of 2.69

Notebook: PPPPPPAQTFLFQGQPVVNRPLSL [TRADD] , protein stability index read as 3.99

Lab book: protein stability index of PESKEPVEKEEEPDPEPPPVTPQV [SMG5] noted as 5.46

What the record says about GHGNKVLCMDWCKDKRRIVSSSQD [GNB5] : protein stability index is 3.85

get_value(item= PRVLTLSERPLDFLDLERPPTTPQ [MFF] , readout=protein stability index) returns 4.53

Summary for this sequence, QYKKEPVTTRQVRTIVEEVQDGKV [KRT17] : protein stability index is 5.12

// sample RTMLDFPQHVSSDKEVRAASTEAD [NLN] , its protein stability index was 4.74

Documented protein stability index of YRERRDSDTYRCEERSPSFGEDYY [CLK3] : 4.29

Just so you know, measured protein stability index for EGAQLKKVEQNSRPVSCSGRDALL [WASL] came out at 4.72

###

# PROTOCOL DESCRIPTION: protein stability index of a GFP-peptide fusion (GPS, HEK-293T) (PSI 1-6); higher = more stable
# TEST CONTEXT: treatment: MLN4924 1 uM, 8 h; c terminus: native
protein stability index values, listed per item
Write the value as a bare number.

Known results for sequences:
1) KQKVMTHVSNGCQLLLGVKGHAF [JUNB]; 2.23
2) YFFLYQYCSIHCSDRKQVRNIAN [CSTF3]; 3.22

The value of protein stability index measured for the sequence FLVFVIVLFFIYHFMQAEEGNPF [EMD] turned out to be 2.83

// protein stability index value for VRQINRKTPVPGKARKKSSCQLL [RAP1B] : 4.44

The sequence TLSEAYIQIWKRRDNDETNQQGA [USP39] showed protein stability index equal to 3.24

Just so you know, measured protein stability index for RAKFKRKYKVKLVEKRAFREIQL [NOP53] came out at 2.79

###

# PROTOCOL DESCRIPTION: protein stability index of a GFP-peptide fusion (GPS, HEK-293T) (PSI 1-6); higher = more stable
# TEST CONTEXT: treatment: MLN4924 1 uM, 8 h; c terminus: a fixed tail appended
Record label 1 whenever protein stability index is at 4 or higher; record label 0 when lower.

1. LCSPGHERRGTPADTEEPTKDPDV [PSD2]; label 1

Does the reported protein stability index for HLRIHTGEKPYKCTHCSKSFRQRA [ZNF449] fall at or above the 4 mark?
label 0

###

# PROTOCOL DESCRIPTION: protein stability index of a GFP-peptide fusion (GPS, HEK-293T) (PSI 1-6); higher = more stable
# TEST CONTEXT: treatment: DMSO; c terminus: a fixed tail appended
Binary call on protein stability index: YES from 3 upward, NO beneath that.

# count of solved cases: 2
1) SVIKNYEDHFPLLFSEASECMLLV [MAGEA10]; YES
2) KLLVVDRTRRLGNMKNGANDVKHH [PRKX]; YES

Decide: protein stability index of MASFPPRVNEKEIVRLRTIGELLA [WSB1] >= 3?
NO

Does protein stability index meet or surpass 3 for YSYRRLGEEALSLQALDPQQCVDK [SLC22A15] ?
YES

Is it the case that GGRAYQALHCPTGTEYTCKVYPVQ [TRIB3] has protein stability index reaching or exceeding 3?
NO

Evaluate PPAMPPPATHLSPALAPVPRNSCI [TRIM9] : protein stability index at minimum 3?
YES

###

protein stability index reference
# PROTOCOL DESCRIPTION: protein stability index of a GFP-peptide fusion (GPS, HEK-293T) (PSI 1-6); higher = more stable
# TEST CONTEXT: treatment: DMSO; c terminus: a fixed tail appended
The answer should be written as a number, with no unit following it.

Answered examples (10):
1. KLRHDLKKTSITQQPSKHRTDEEL [PLK2]; 4.92
2. RGAQGVILVYDIANRWSFDGIDRW [RAB40B]; 2.29
3. NLLQDSSTSDSDLTCDSSTSSSDD [C18orf25]; 5.53
4. AGFQDIPKRCLKAREHFGTVKTHL [TSN]; 2.81
5. LLVGGLPPGPDRLPSNLVQYYDDE [KLHL14]; 4.17
6. ALEALEPFWEVLVRSTETVERDNM [HDAC6]; 2.95
7. PAFVKFAYVAEREDELSLVKGSRV [NCK2]; 3.09
8. YGVASCEACKAFFKRTIQGSIEYS [ESRRA]; 2.34
9. VLVNVLQAIYVIDFFWNETWYLKT [DHCR7]; 3.09
10. LLSKYCGYREDNIPQLEDVSNFLK [TPH1]; 2.41

According to the records, this sequence FRIILGDFDYNAIDNANRILGPAY [PKD2L1] displays protein stability index of 2.74

Form field protein stability index, entry CDEARNHYGGVVSLIPLILDLMKE [SPACA9] : 2.3

protein stability index reported for this sequence KSEGQKIPKVELQISIYGVKILEP [GULP1] : 2.84

###

# PROTOCOL DESCRIPTION: protein stability index of a GFP-peptide fusion (GPS, HEK-293T) (PSI 1-6); higher = more stable
# TEST CONTEXT: treatment: DMSO; c terminus: a fixed tail appended
QUANTITY MEASURED: protein stability index
The response must contain the number and no unit.

1. LEYLYTDSCCPAGIFQAMCLLICA [RHOBTB3]; 3.08
2. GEEALSLQALDPQQCVDKESSLGS [SLC22A15]; 5.36
3. VPVDTGVAARTPAVEGLTEAEEEE [TPD52L2]; 5.51
4. VPSKPPMSLEPQNGTYAGPAPAFQ [ANKRD40]; 4.12
5. LGVFLDYEAGVLAFYDVTGGMSHL [TRIM14]; 2.83
6. SEDLDGHSDPEESFARDLPDFPSI [RETREG3]; 5.33

// recorded protein stability index for RGPSPVVLGSQDALPIATAFTEYV [FCHO1] : 3.14

Documented protein stability index of EEDNDDAKILPSPVQGSSEDNLSL [DRICH1] : 5.57

Record EFSTSLFSGSLEPVACGSVLSEGS [SRPK2] , field protein stability index: 3.98

###

# PROTOCOL DESCRIPTION: protein stability index of a GFP-peptide fusion (GPS, HEK-293T) (PSI 1-6); higher = more stable
# TEST CONTEXT: treatment: MLN4924 1 uM, 8 h; c terminus: a fixed tail appended
The reader will find reported protein stability index values listed item by item below.
Please respond with just the number, no unit label.

1) APVLVAAPHSTFFDPIVLLPCDLP [LPCAT4]; 2.47
2) GIRQITSDDFCTFQMVLEGGVCCT [GFOD1]; 2.22
3) FQRAMHDYNQAEMKQRDNCKIRIQ [STX11]; 3.44
4) RELGPEELDELQAAFEEFDTDRDG [CABP4]; 5.54
5) AWGPGTLAAAPEGLEDAGLDPHFV [TEX19]; 4.37
6) APRGTPDPGLGEGPALWLRSTCVY [PLEKHN1]; 2.34

Memo: AICGDRATGKHYGASSCDGCKGFF [HNF4A] , reported protein stability index: 2.98

response.value for SLKLKSSHHSKHKAPSKLGLIISG [DLC1] (field: protein stability index) = 2.77

Please fill in: protein stability index reported for DEEVVATAGDRLTEFRKGAQSLPG [IRX6] = 5.19

Memo: NTEVPARNLYAYIQKLTQIETGEN [PTPRD] , reported protein stability index: 3.37
